test: AUClast in ICR mouse at 1 mg/kg, iv measured at 0.25 to 12 hrs by LC-MS/MS analysis; format: ADME, organism-based; set-up: time lower 0.25 hrs, dose 1 mg/kg, time upper 12 hrs, route iv; conditions: in vivo
measured.metric: AUC(0-t) (ng·h/mL)
Express your answer in ng·h/mL, writing the number without its unit.

Prompt line: I have this compound here, `CC(C)Oc1ccc(COc2ccc3c(c2)CCCN(S(=O)(=O)CCC(=O)O)C3)cc1C#N` , and I need its recorded AUC(0-t).
Response line: 593

Prompt line: Param item: `CC(C)Oc1ccc(COc2ccc3c(c2)CCN(S(=O)(=O)CCC(=O)O)C3)cc1C#N`
Response line: 925

###

molecular target: Sphingosine 1-phosphate receptor 1 (Homo sapiens); experiment: Agonist activity at S1P1 (unknown origin) expressed in human HEK293/Galpha15 cells assessed as Ca2+ activation at 1 uM measured for 2 hrs by FLIPR analysis relative to control; type: functional, cell-based
Sequence (P21453 whole entry): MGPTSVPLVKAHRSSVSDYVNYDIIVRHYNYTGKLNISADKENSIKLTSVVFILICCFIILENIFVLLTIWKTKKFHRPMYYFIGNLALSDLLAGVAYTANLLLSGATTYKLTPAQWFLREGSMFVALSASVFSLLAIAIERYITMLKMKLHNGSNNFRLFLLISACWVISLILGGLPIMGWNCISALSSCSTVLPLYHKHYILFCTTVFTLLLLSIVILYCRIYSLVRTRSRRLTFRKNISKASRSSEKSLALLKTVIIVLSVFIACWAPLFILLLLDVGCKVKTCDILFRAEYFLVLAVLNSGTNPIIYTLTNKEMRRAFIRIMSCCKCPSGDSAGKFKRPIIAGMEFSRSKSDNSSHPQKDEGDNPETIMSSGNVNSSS
Can you tell me Activity for the items I'm about to list?
Express your answer in %, writing the number without its unit.

Prompt line: Query for Sphingosine 1-phosphate receptor 1 (Homo sapiens): what Activity does the record show for `COC(=O)CS(=O)(=O)N1CCc2cc(OCc3ccc(OC(C)C)c(C#N)c3)ccc2C1` ?
Response line: 6

Prompt line: Param item: `CC(C)Oc1ccc(COc2ccc3c(c2)CN(S(=O)(=O)CCC(=O)O)CC3)cc1C#N`
Response line: 3

Prompt line: Param item: `CC(C)Oc1ccc(COc2ccc3c(c2)CCN(C(=O)CCC(=O)N(C)C)C3)cc1C#N`
Response line: 25

Prompt line: Param item: `CC(C)Oc1ccc(COc2cccc3c2CCN(S(=O)(=O)CCCO)C3)cc1C#N`
Response line: 3

Prompt line: Param item: `CC(C)Oc1ccc(COc2ccc3c(n2)CCN(C(=O)CCC(=O)O)C3)cc1C#N`
Response line: 14

###

Can you tell me remaining at 1 h for the items I'm about to list?
assay: Microsomal stability in mouse liver microsomes assessed as parent compound remaining preincubated for 5 mins followed by NADPH addition measured after 60 mins by LC-MS/MS analysis; format: ADME, Microsome; settings: time 65 min, read-out: Stability
Express your answer in %, writing the number without its unit.

Prompt line: I have this molecule here, `CC(C)Oc1ccc(COc2ccc3c(c2)CCCN(S(=O)(=O)CCC(=O)O)C3)cc1C#N` , and I need its recorded remaining at 1 h.
Response line: 67.1

Prompt line: Param item: `CC(C)Oc1ccc(COc2ccc3c(c2)CCCN(S(=O)(=O)CC(=O)O)C3)cc1C#N`
Response line: 85.1

Prompt line: Param item: `CC(C)Oc1ccc(COc2ccc3c(c2)OCCN(S(=O)(=O)CCC(=O)O)C3)cc1C#N`
Response line: 90.5

###

Molecular target: Sphingosine 1-phosphate receptor 4 (Homo sapiens)
Sequence (O95977 whole entry): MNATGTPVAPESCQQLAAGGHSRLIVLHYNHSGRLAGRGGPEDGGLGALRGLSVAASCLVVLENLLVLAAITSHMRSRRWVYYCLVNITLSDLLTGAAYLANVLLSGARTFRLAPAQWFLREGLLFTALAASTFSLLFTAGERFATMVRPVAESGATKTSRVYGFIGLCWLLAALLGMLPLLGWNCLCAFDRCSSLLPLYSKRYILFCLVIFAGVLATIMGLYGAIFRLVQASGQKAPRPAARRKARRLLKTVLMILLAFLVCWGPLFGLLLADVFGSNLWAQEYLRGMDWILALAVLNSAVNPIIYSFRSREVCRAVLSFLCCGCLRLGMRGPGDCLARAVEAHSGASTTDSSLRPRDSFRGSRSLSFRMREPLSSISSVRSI
Assay: Agonist activity at S1P4 (unknown origin) expressed in PathHunter CHO-K1 EDG1 beta-arrestin cells assessed as beta-arrestin recruitment
Type: functional, cell-based
Can you tell me EC50 for the items I'm about to list?
Express your answer in µM, writing the number without its unit.

Prompt line: Query for Sphingosine 1-phosphate receptor 4 (Homo sapiens): what EC50 does the record show for `CCCCCCCCCCCCC/C=C/[C@@H](O)[C@@H](N)COP(=O)(O)O` ?
Response line: 0.092

Prompt line: Param item: `CC(C)Oc1ccc(COc2ccc3c(c2)CCCN(S(=O)(=O)CCC(=O)O)C3)cc1C#N`
Response line: 17.7
